Can you tell me inhibition at 20 µM for the items I'm about to list?
Biological target: Rho-A (Homo sapiens (Human))
Sequence (P61586 whole entry): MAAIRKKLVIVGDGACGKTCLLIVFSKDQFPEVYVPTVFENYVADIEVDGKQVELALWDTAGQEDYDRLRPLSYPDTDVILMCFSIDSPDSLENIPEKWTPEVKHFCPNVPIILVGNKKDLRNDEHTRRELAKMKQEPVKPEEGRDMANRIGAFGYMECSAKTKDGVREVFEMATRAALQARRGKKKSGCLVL
Experiment: Rho inhibition assay (labeled GTP)
Format: binding
Settings: read-out: Rho-A % Inh.

Exam item: What does the data say about its inhibition at 20 µM? Entry: COCCNc1nc(-c2nccn2C)nc2sc(-c3cccc(OC)c3)c(-c3ccccc3)c12 [drawing 3904]
Marked response: 51 to 75%

Exam item: What does the data say about its inhibition at 20 µM? Entry: COc1cnc(CNC(=O)c2csc3nc(-c4ccccn4)nc(N)c23)[nH]c1=O [drawing 3835]
Marked response: 51 to 75%

Exam item: What does the data say about its inhibition at 20 µM? Entry: CC(C)COc1ccc(-c2csc3c(O)nc(-c4cn(C)cn4)nc23)cn1 [drawing 3923]
Marked response: 25 to 50%

Exam item: What does the data say about its inhibition at 20 µM? Entry: COCCCCNC(=O)c1csc2nc(-c3ccccn3)nc(N3CCOCC3)c12 [drawing 3678]
Marked response: 51 to 75%

Exam item: What does the data say about its inhibition at 20 µM? Entry: Oc1nc(-c2ccccn2)nc2c(-c3cncc(F)c3)csc12 [drawing 3782]
Marked response: 1 to 25%

Exam item: What does the data say about its inhibition at 20 µM? Entry: COc1ccc(CCNC(=O)c2csc3nc(-c4ccccn4)nc(N4CCOCC4)c23)cn1 [drawing 3634]
Marked response: 51 to 75%

Exam item: What does the data say about its inhibition at 20 µM? Entry: O=C(c1csc2c(O)nc(-c3ccccn3)nc12)N1CCC(c2ccncc2)C1 (centres unmarked) [drawing 3711]
Marked response: 76 to 100%

Exam item: What does the data say about its inhibition at 20 µM? Entry: Cc1sc2c(O)nc(-c3ccccn3)nc2c1-c1ccccc1Cl [drawing 3833]
Marked response: 76 to 100%
